Reference source for all entries: ChEMBL document CHEMBL3864160

- testName: Inhibition of Hepatitis C virus genotype 1a H77 replicon NS5A transfected in human HuH7 cells assessed as decrease in replication of viral replicon after 4 days by luciferase reporter gene assay
- Assay type: cell-based, Hepatitis C virus (isolate H77)
- conditionContext: Huh-7, 96 h
measureName: pEC50
As a rule, pEC50 stands for the negative log10 of the concentration, concentration in M.

The following molecules have reported results that may help.
COC(=O)N[C@H](C(=O)N1CCC[C@H]1c1nc2cc(-c3ccc(-c4cc5nc([C@@H]6CCCN6C(=O)[C@@H](NC(=O)OC)C(C)C)[nH]c5cc4OC)cc3)c(OC)cc2[nH]1)C(C)C    7.59
COC(=O)N[C@H](C(=O)N1CCC[C@H]1c1nc2cc(-c3ccc(-c4cc(OC)c5[nH]c([C@@H]6CCCN6C(=O)[C@@H](NC(=O)OC)C(C)C)nc5c4)cc3)cc(OC)c2[nH]1)C(C)C    9.20
COC(=O)N[C@H](C(=O)N1CCC[C@H]1c1nc2cc(-c3ccc(-c4cc5nc([C@@H]6CCCN6C(=O)[C@@H](NC(=O)OC)C(C)C)[nH]c5cc4C)cc3)c(C)cc2[nH]1)C(C)C    8.83

Recall and state the measured pEC50 for "COC(=O)N[C@H](C(=O)N1CCC[C@H]1c1nc2cc(-c3ccc(-c4cnc5[nH]c([C@@H]6CCCN6C(=O)[C@@H](NC(=O)OC)C(C)C)nc5c4)cc3)cnc2[nH]1)C(C)C" .
8.25

====

- Test system: Hepatitis C virus (isolate H77)
- testName: Resistance ratio of EC50 for Hepatitis C virus genotype 1a H77 replicon NS5A Q30R mutant to EC50 for Hepatitis C virus genotype 1a H77 replicon NS5A
measureName: Ratio EC50

Determine reported Ratio EC50 for "COC(=O)N[C@H](C(=O)N1CCC[C@H]1c1nc2cc([C@H]3CC[C@H](c4cc5nc([C@@H]6CCCN6C(=O)[C@@H](NC(=O)OC)C(C)C)[nH]c5cc4F)N3c3ccc(C(C)(C)C)cc3)c(F)cc2[nH]1)C(C)C" ; test system: Hepatitis C virus (isolate H77).
3

Determine reported Ratio EC50 for "COC(=O)N[C@H](C(=O)N1CCC[C@H]1c1nc2ccc([C@H]3CC[C@H](c4ccc5nc([C@@H]6CCCN6C(=O)[C@@H](NC(=O)OC)C(C)C)[nH]c5c4)N3c3ccc(C(C)(C)C)cc3)cc2[nH]1)C(C)C" ; test system: Hepatitis C virus (isolate H77).
14

Determine reported Ratio EC50 for "COC(=O)N[C@H](C(=O)N1CCC[C@H]1c1nc2cc([C@H]3CC[C@H](c4cc5nc([C@@H]6CCCN6C(=O)[C@@H](NC(=O)OC)C(C)C)[nH]c5cc4F)N3c3cc(F)c(N4CCCCC4)c(F)c3)c(F)cc2[nH]1)C(C)C" ; test system: Hepatitis C virus (isolate H77).
3

Determine reported Ratio EC50 for "COC(=O)N[C@H](C(=O)N1CCC[C@H]1c1nc2cc([C@H]3CC[C@H](c4ccc5[nH]c([C@@H]6CCCN6C(=O)[C@@H](NC(=O)OC)C(C)C)nc5c4)N3c3cc(F)c(N4CCCCC4)c(F)c3)ccc2[nH]1)C(C)C" ; test system: Hepatitis C virus (isolate H77).
8

====

- testName: Oral bioavailability in Sprague-Dawley rat at 3 mg/kg administered via gavage after 0.25 to 24 hrs
- Type: ADME, organism-based
- conditionContext: in vivo
measureName: bioavailability
Output should be the measured figure followed by the unit it is expressed in.

Recall and state the measured bioavailability for "COC(=O)N[C@H](C(=O)N1CCC[C@H]1c1nc2ccc([C@H]3CC[C@H](c4ccc5nc([C@@H]6CCCN6C(=O)[C@@H](NC(=O)OC)C(C)C)[nH]c5c4)N3c3ccc(C(C)(C)C)cc3)cc2[nH]1)C(C)C" .
20%
